STUDY_SYSTEM: NK1 (Homo sapiens, UniProt P25103)
Sequence (P25103 whole entry): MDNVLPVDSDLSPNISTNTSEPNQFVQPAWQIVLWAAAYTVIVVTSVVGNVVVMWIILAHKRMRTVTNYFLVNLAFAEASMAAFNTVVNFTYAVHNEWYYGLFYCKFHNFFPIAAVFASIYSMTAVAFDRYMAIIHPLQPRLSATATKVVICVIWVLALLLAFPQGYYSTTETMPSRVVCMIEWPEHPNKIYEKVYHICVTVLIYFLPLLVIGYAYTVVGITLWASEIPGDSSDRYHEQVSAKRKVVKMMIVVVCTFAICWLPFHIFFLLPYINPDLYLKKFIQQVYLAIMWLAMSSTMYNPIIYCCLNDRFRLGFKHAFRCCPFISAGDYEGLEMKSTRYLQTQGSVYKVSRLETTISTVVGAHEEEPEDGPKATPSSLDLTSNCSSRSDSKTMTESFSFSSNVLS
ASSAY_PROCEDURE: Signal transduction (ST), intracellular Ca++ (FLIPR), functional NK1 antagonistic activity
Format: cell-based
CONDITIONS_USED: antagonist, read-out: NK1 pIC50 (converted)
METRIC_NAME: IC50 (nM)

Use the examples below as a reference point.
{"columns": ["COMPOUND", "IC50, nM"],
 "data": [
  ["Cn1cnc(C(=O)N2CCC3(CC2)CCN([C@H]2CCN(C(=O)c4cc(C(F)(F)F)cc(C(F)(F)F)c4)[C@H](Cc4ccccc4)C2)CC3)c1 [Compound 34]", 191],
  ["CC(C)(C)C(=O)N1CCC2(CC1)CCN([C@H]1CCN(C(=O)c3cc(C(F)(F)F)cc(C(F)(F)F)c3)[C@H](Cc3ccccc3)C1)CC2 [Compound 7]", 115]
]}

(1) COc1cccc(CCC(=O)N2CCC3(CC2)CCN([C@H]2CCN(C(=O)c4cc(C(F)(F)F)cc(C(F)(F)F)c4)[C@H](Cc4ccccc4)C2)CC3)c1 [Compound 83]
(2) O=C(c1cc(C(F)(F)F)cc(C(F)(F)F)c1)N1CC[C@H](N2CCC3(CC2)CCN(S(=O)(=O)c2cccc(Cl)c2)CC3)C[C@H]1Cc1ccccc1 [Compound 107]
(3) CC1(C)C(C(=O)N2CCC3(CC2)CCN([C@H]2CCN(C(=O)c4cc(C(F)(F)F)cc(C(F)(F)F)c4)[C@H](Cc4ccccc4)C2)CC3)C1(C)C [Compound 16]
(4) O=C(c1cc(C(F)(F)F)cc(C(F)(F)F)c1)N1CC[C@H](N2CCC3(CCN(C(=O)C4(c5ccccc5)CCCC4)CC3)CC2)C[C@H]1Cc1ccccc1 [Compound 90]
Ranking field: IC50; order: falling. Field: ranking. Enter the labels in the order requested. 4, 3, 2, 1
(4: 355 nM, 3: 191 nM, 2: 115 nM, 1: 36.3 nM)
